Every entry's value here was drawn from patent US20110086834A1.

Target: NIK (Homo sapiens, UniProt Q99558)
Construct: Both assays utilize a truncated form of NIK containing only the catalytic domain; made in house; host or cells: baculovirus expression system (insect cells implied)
Sequence (Q99558 400-655 limits assumed): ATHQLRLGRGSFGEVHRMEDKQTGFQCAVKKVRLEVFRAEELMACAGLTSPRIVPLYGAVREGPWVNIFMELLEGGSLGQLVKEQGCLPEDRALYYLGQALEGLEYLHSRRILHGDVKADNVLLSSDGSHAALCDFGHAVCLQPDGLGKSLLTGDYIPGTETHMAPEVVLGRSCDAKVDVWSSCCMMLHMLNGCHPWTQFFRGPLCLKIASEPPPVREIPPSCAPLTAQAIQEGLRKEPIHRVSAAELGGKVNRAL
Test: homogenous time resolved fluorescence (HTRF) assay for NIK Ki measurement
Format: biochemical
Details: truncated NIK (catalytic domain only), autophosphorylation; 10 nM enzyme; 20, 100, 200 or 500 μM ATP; room temperature, 2 hours; read-out: Ki activity in the homogenous time resolved fluorescence (HTRF) assay for NIK
The following compounds are shown together with reported Ki values.

Use the examples below as a reference point.
- COMPOUND: "CC(O)(C#Cc1cncc(C(=O)Nc2ccncn2)c1)c1nccs1 (centres unmarked)"
  Ki: "1000 to 30000 nM"
- COMPOUND: "Cc1[nH]c2ccc(C#CC(C)(O)c3nccs3)cc2c1-c1ccncc1 (centres unmarked)"
  Ki: "< 1000 nM"
- COMPOUND: "CCN(CC)CCn1cc(-c2nc(N)ncc2Cl)c2cc(C#CC3(O)CCCC3)ccc21"
  Ki: "< 1000 nM"
- COMPOUND: "CC(O)(C#Cc1ccc2c(c1)N(c1ccnc(N)n1)CC2)c1cccs1 (centres unmarked)"
  Ki: "< 1000 nM"
- COMPOUND: "Nc1ncc(F)c(N2CC3(CCOCC3)c3ccc(C#CC4(O)CCCC4)cc32)n1"
  Ki: "< 1000 nM"
- COMPOUND: "CN1CC2(C1)CN(c1nc(N)ncc1Cl)c1cc(C#CC(C)(O)c3nccs3)ccc12 (single isomer, unassigned) [Example 182a]"
  Ki: "1000 to 30000 nM"
- COMPOUND: "Cc1nc(C)c(C(C)(O)C#Cc2ccc3c(c2)N(c2ccnc(N)n2)CC3)s1 (centres unmarked)"
  Ki: "1000 to 30000 nM"
- COMPOUND: "Cc1cnc(C(C)(O)C#Cc2ccc3c(c2)N(c2nc(N)ncc2Cl)CC3(C)C)s1 (centres unmarked)"
  Ki: "< 1000 nM"

Task: // fetch NIK (Homo sapiens, UniProt Q99558) Ki for COc1ccc(C#CC2(O)CCCC2)cc1Nc1ccnc(N)n1
Output: < 1000 nM

Task: // fetch NIK (Homo sapiens, UniProt Q99558) Ki for CC(C)C(C)(O)C#Cc1ccc2c(c1)N(c1ccnc(N)n1)CC2 (centres unmarked)
Output: 1000 to 30000 nM

Task: // fetch NIK (Homo sapiens, UniProt Q99558) Ki for COc1ccc(C#CC(C)(O)c2cc(C)no2)cc1Nc1nc(N)ncc1Cl (centres unmarked)
Output: < 1000 nM

Task: // fetch NIK (Homo sapiens, UniProt Q99558) Ki for C[C@](O)(C#Cc1ccc2c(c1)N(c1nc(N)ncc1Cl)CC21COC1)c1nccs1
Output: 1000 to 30000 nM

Task: // fetch NIK (Homo sapiens, UniProt Q99558) Ki for CC(O)(C#Cc1ccc2ccn(-c3ccncc3)c2c1)c1nccs1 (centres unmarked)
Output: < 1000 nM

Task: // fetch NIK (Homo sapiens, UniProt Q99558) Ki for CC(O)(C#Cc1ccc2c(c1)N(c1nc(N)ncc1Cl)CC21CCSCC1)c1nccs1 (racemic)
Output: < 1000 nM

Task: // fetch NIK (Homo sapiens, UniProt Q99558) Ki for C[C@@](O)(C#Cc1ccc2c(c1)N(c1nc(N)ncc1Cl)CC2(CO)CO)c1nccs1 (single isomer, unassigned)
Output: < 1000 nM

Task: // fetch NIK (Homo sapiens, UniProt Q99558) Ki for CC(O)(C#Cc1ccc2c(c1)N(c1ccnc(N)n1)CC2)c1sccc1Cl (centres unmarked)
Output: < 1000 nM

Task: // fetch NIK (Homo sapiens, UniProt Q99558) Ki for CN1CCC2(CC1)CN(c1nc(N)nc3[nH]cnc13)c1cc(C#CC3(O)CCCC3)ccc12
Output: < 1000 nM

----------
The following molecules are shown together with reported pKi values.
Biological target: NIK (Homo sapiens, UniProt Q99558)
Construct: Both assays utilize a truncated form of NIK containing only the catalytic domain; made in house; host or cells: baculovirus expression system (insect cells implied)
Test: homogenous time resolved fluorescence (HTRF) assay for NIK Ki measurement
Format: biochemical
Conditions: truncated NIK (catalytic domain only), autophosphorylation; 10 nM enzyme; 20, 100, 200 or 500 μM ATP; room temperature, 2 hours; read-out: Ki activity in the homogenous time resolved fluorescence (HTRF) assay for NIK
pKi: −log10 of the molar value.

Use the examples below as a reference point.
- MOLECULE: "CC(C)(C)C(=O)n1cc(-c2nc(N)ncc2Cl)c2cc(C#CC3(O)CCCC3)ccc21 [Example 122]"
  pKi: "> 6.00"
- MOLECULE: "Nc1ncc(Cl)c(N2CC3(CS(=O)(=O)C3)c3ccc(C#CC4(O)CCCC4)cc32)n1 [Example 212]"
  pKi: "> 6.00"
- MOLECULE: "CC(O)(C#Cc1cccc(N(CCN2CCOCC2)c2ccncn2)n1)c1nccs1 (centres unmarked) [Example 175]"
  pKi: "4.52 to 6.00"
- MOLECULE: "CC(O)(C#Cc1ccc2c(c1)N(c1nc(N)ncc1Cl)CC2(C)C)C(=O)N1CCCC1 (centres unmarked) [Example 50]"
  pKi: "> 6.00"
- MOLECULE: "Cc1ccc(C#CC(C)(O)c2nccs2)cc1Nc1ccc(C#N)cn1 (centres unmarked) [Example 170]"
  pKi: "4.52 to 6.00"

Task: Field request: pKi | item: CC(O)(C#Cc1ccc2c(c1)N(c1nc(N)ncc1Cl)CC2(C)C)c1ccn[nH]1 (centres unmarked) [Example 80]
Output: > 6.00

Task: Field request: pKi | item: CC(O)(C#Cc1ccc2c(c1)N(c1nc(N)ncc1Cl)CC2)c1ccn[nH]1 (centres unmarked) [Example 78]
Output: > 6.00

Task: Field request: pKi | item: C[C@@](O)(C#Cc1ccc2c(c1)N(c1nc(N)ncc1Cl)CC21CCOCC1)c1nccs1 (single isomer, unassigned) [Example 209]
Output: > 6.00

----------
Molecular target: NIK (Homo sapiens)
Construct: Both assays utilize a truncated form of NIK containing only the catalytic domain; made in house; host or cells: baculovirus expression system (insect cells implied)
Test: homogenous time resolved fluorescence (HTRF) assay for NIK Ki measurement
Format: biochemical
Conditions: truncated NIK (catalytic domain only), autophosphorylation; 10 nM enzyme; 20, 100, 200 or 500 μM ATP; room temperature, 2 hours; read-out: Ki activity in the homogenous time resolved fluorescence (HTRF) assay for NIK
EXPERIMENTAL_ENDPOINT: Ki

- MOLECULE: "Cc1ccc(C(C)(O)C#Cc2ccc3c(c2)N(c2ccnc(N)n2)CC3)s1 (centres unmarked)"
  TEST_TARGET: "NIK (Homo sapiens)"
  Ki: "< 1 µM"
- MOLECULE: "Cn1cncc1C(O)C#Cc1ccc2c(c1)N(c1nc(N)ncc1Cl)CC2(C)C (single isomer, unassigned)"
  TEST_TARGET: "NIK (Homo sapiens)"
  Ki: "1 to 30 µM"
- MOLECULE: "COCCOCC1(C)CN(c2nc(N)nc3[nH]cnc23)c2cc(C#CC3(O)CCCC3)ccc21 (centres unmarked)"
  TEST_TARGET: "NIK (Homo sapiens)"
  Ki: "< 1 µM"
- MOLECULE: "CC(=O)Nc1cc(C#CC2(O)CCCC2)cc2c1CCN2c1nc(N)ncc1Cl"
  TEST_TARGET: "NIK (Homo sapiens)"
  Ki: "< 1 µM"
- MOLECULE: "CC(C)C(=O)n1cc(-c2nc(N)ncc2Cl)c2cc(C#CC3(O)CCCC3)ccc21"
  TEST_TARGET: "NIK (Homo sapiens)"
  Ki: "< 1 µM"

Task: Field request: Ki | item: COCCOc1cnc(N)nc1-c1c[nH]c2c(F)cc(C#CC3(O)CCCC3)cc12
Output: < 1 µM

Task: Field request: Ki | item: Cc1cc([C@@](C)(O)C#Cc2ccc(F)c(Nc3nc(N)ncc3Cl)c2)no1
Output: 1 to 30 µM

Task: Field request: Ki | item: COCCN(C)c1ccc(C#C[C@](C)(O)c2nccs2)cc1Nc1nc(N)ncc1Cl
Output: 1 to 30 µM

----------
Biological target: NIK (Homo sapiens)
Construct: Both assays utilize a truncated form of NIK containing only the catalytic domain; made in house; host or cells: baculovirus expression system (insect cells implied)
Assay: homogenous time resolved fluorescence (HTRF) assay for NIK Ki measurement
Type: biochemical
Conditions: truncated NIK (catalytic domain only), autophosphorylation; 10 nM enzyme; 20, 100, 200 or 500 μM ATP; room temperature, 2 hours; read-out: Ki activity in the homogenous time resolved fluorescence (HTRF) assay for NIK
The following molecules are shown together with reported Ki values.

Use the examples below as a reference point.
- MOLECULE: "COCCOc1cncnc1-c1c[nH]c2ccc(C#CC3(O)CCCC3)cc12 [Example 237]"
  EXPERIMENTAL_ENDPOINT: "Ki"
  ASSAY_VALUE: "< 1000 nM"
- MOLECULE: "Cc1nonc1C(C)(O)C#Cc1ccc2c(c1)N(c1nc(N)ncc1Cl)CC2 (stereo not shown) [Example 6]"
  EXPERIMENTAL_ENDPOINT: "Ki"
  ASSAY_VALUE: "1000 to 30000 nM"
- MOLECULE: "CC1(C)CN(c2nc(N)ncc2Cl)c2cc(C#C[C@](C)(O)c3nccs3)ccc21 (single isomer, unassigned) [Example 41]"
  EXPERIMENTAL_ENDPOINT: "Ki"
  ASSAY_VALUE: "1000 to 30000 nM"

Now turn to the next molecule.
Task: Field request: Ki | item: Nc1ncc(Cl)c(-c2cnc3ccc(C#CC4(O)CCCC4)cn23)n1 [Example 298]
Output: < 1000 nM
